Hi there, I'd appreciate the recorded polymerase ribozyme fitness (log ratio) for every entry that follows.
B1: TPR t1 (parent)
chain: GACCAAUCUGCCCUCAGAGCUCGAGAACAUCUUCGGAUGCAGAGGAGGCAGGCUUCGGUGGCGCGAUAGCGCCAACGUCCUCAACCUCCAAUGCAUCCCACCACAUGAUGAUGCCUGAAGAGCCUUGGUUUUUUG

Variants of: B1
Assay: polymerase ribozyme fitness, log enrichment relative to wild type (log ratio); higher = more active; in vitro selection for triplet polymerase activity
// no unit, no text: just the number

Form field: reported polymerase ribozyme fitness (log ratio) of `GACUAAUCUGCCCUCAGAGCUCGAGAACAUCUUCGGAUGCAGAGGAGGCAGGCUUCGGUGGCGCGAUAGUGCCAACGUCCUCAACCUCCAAUGCAUCCCACCACAUGAUGAUGCCUGAAGAGCCUUGGUUUUUUG` -0.878

Form field: reported polymerase ribozyme fitness (log ratio) of `GCCCUAUCUGCCCUCAGAGCUCGAGAACAUCUUCGGAUGCAGAGGAGGCAGUCUUCGGUGGAGCGAUAGCGCCAACGUCCUCAACCUCCAAUGCAUCCCACCACAUGAUGAUGCCUGAAGAGCCUUGGUUUUUUG` -4.11

Form field: reported polymerase ribozyme fitness (log ratio) of `GACCAAUCUGCCCUCAGAGCACGAGACCAUCUUCGGAUGCAGAGGAGGCAGGCUUCGGUGGCGCGAUGGCGCCAACGUCCUCAACCUCCAAUGAAUCCCACCACAUGAUGAUGCCUGAAGAGCCUUGGUUUUUUG` -6.24

Form field: reported polymerase ribozyme fitness (log ratio) of `GACCAAUCUGCCCUCAGAGCUCGAGAACAUCUUCGGAUGCAGAGGAGGCAGGCUUCGGUGCCGCGAUAGCGCCAACGUCCUCAACCUCCAAUGCAUACCACCACAUGAUGAUGCCUGAAGAGCCUUGGUUUUUUG` -4.3

Form field: reported polymerase ribozyme fitness (log ratio) of `GACCAAUCUGCCCUCAGAGCUCGAGAACAUCUUCGGAUGCAGAGGAGGCAGGCUUCGGUGGCGCGAUAGAGCCAACGUCCUCAACCUCCAAUGCAUCUCACCACAUGAUGAUGCCUGAAGAGCCUUGGUGUUUUG` -2.6

Form field: reported polymerase ribozyme fitness (log ratio) of `GACCUAUCUGCCCUCAGAGCUCGAGAACAUCUUCGGAUGCAGAGGAGGCAGGCUUCGGUGCCGCGAUAGCGCCAACGUCCUCAACCUACAAUGCAUCCCACCACAUGAUGAUGCCUGAAGAGCCUUGGUUUUUUG` -2.27

Form field: reported polymerase ribozyme fitness (log ratio) of `GACCAAUAUGCCCUCAGAGCUCGAGAACAUCUUCGGAUGCUGAGGAGGUAGGCUUCGGUGGCGCGAUAGCGCCAACGUCCUCAACCUCCAAUGCAUCCCACCACAUGAUGAUGCCUGAAGAGCCUUGGUUUUUUG` -1.56

Form field: reported polymerase ribozyme fitness (log ratio) of `GACCAAUCUGCCCUCAGAGCUCGAGAACAUCUUCGGAUGCAGAGGAGGCAGGCUUCGGUGGCUCGAUAGCGCCAACGUCCUCAACCUCCAAUGCAUCCCACCACAUGAUGAUGCCUUAAGAGCCUUGGUUUUUUG` -2.02

Form field: reported polymerase ribozyme fitness (log ratio) of `GACCAAUCUGCCCUCAGAGCUCGAGAACAUCUUCGGAUGCAGAGGAGGCAAACUUCGGUGGCGCGAUAGCGCCAACGUCCUCAACCUCCAAUGCAUCCCAUCACAUGAUGAUGCCUGAAGAGCCUUGGUUUUUUG` -3.92

Form field: reported polymerase ribozyme fitness (log ratio) of `GACCAAUCUGCCCUCAGAGCUCGAGAACAUCUUCGGAUGCAGAGGAGGCAGGCUUUGGUGGCGCGAUAGCGCCAACGUCCUCAACCUCCAAUUCAUCCCACCACAUGAUGAUGCCCGAAGAGCCUUGGUUUUUUG` -1.7

Form field: reported polymerase ribozyme fitness (log ratio) of `GACCAAUCUGACCUCAGAGCUCGAGAACAUCUUCGGAUGCAGAGGAGGCAGGCUUCGGUGGCGCGAUAGUGCCAACGUCCUCAACCUCCAAUGCAUCCCACCACAUGAUGAUGCCUAAAGAGCCUUGGUUUUUUG` -6.1

Form field: reported polymerase ribozyme fitness (log ratio) of `GACCAAUCUGCCCUCAGAGCUCGAGAACAUCUUCGGAUGCAGAGGAGGCAGGCUUCGGUGGCGCGAUAGCGCCAACGUCCUCAACCUCCAAUUCAUCCCACCACAUGAUGAUGCCUGAAGUGCCUUGGUUGUUUG` 0.33

Form field: reported polymerase ribozyme fitness (log ratio) of `GACCAAUCUGCCCUCAGAGCCCGAGAACAUCUUCGGAUGCAGAAGAGGCAGGCUUCGGUGGCGCGAUAGCGCCAACGUCCUCAACCUCCAAUGCAUCCCACCACAUGAUGAUGCCUGAGGAGCCGUGGUUUUUUG` -1.38

Form field: reported polymerase ribozyme fitness (log ratio) of `GACCACUCUGUCCUCAGAGCUCGAGAACAUCUUCGGAUGCAGAGGAGGCAGGCUUCGGUGUCGCGAUAGCGCCAACGUCCUCAACCUCCAAUGCAUCCCACCACAUGAUGAUUCCUGAAGAGCCUUGGUUUUUUG` -4.99

Form field: reported polymerase ribozyme fitness (log ratio) of `GACCAAUCUGCCCUCAGAGCUCGAGAACAUCUUCGGAUGCAGAGGAGGCAGGCUUCGGUGGCACGAUAGCGCGAACGUCCUCAACCUCCAAUGCAUCCCACCACAUGAUGAUGCCUGAAGAGCCUUGGUUUUUUG` -4.71

Form field: reported polymerase ribozyme fitness (log ratio) of `GACCAAUCUGCCCUCAGAGCUCGAGAACAUCUUCGGAUGCAGAGGAGGCAGGCUUCGGUGGCGCGAUAGAGCCAACGUCCUCAACCUCCAAUGCAUCCCACCACAUGAUGAUGCCUGAAGCGCCUUGGUUUUUUG` 0.356

Form field: reported polymerase ribozyme fitness (log ratio) of `GACCAAUCUGCCCUCAGAGCUCGAGAACAUCUUCGGAUGAAGAGGAGGCAGGCUUCGGUGGCGCGAUAGCGCAAACGUCCCCAACCUCCAAUGCAUCCCACCAUAUGAUGAUGCCUGAAGAGCCUUGGUUUUUUG` -0.977

Form field: reported polymerase ribozyme fitness (log ratio) of `GACCAAUCUCUCCUCAGAGUUCGAGAACAUCUUCGGAUGCAGAGGAGACAGGCUUCGGUGGCGCGAUAGCGCCAACGUCCUUAACCUCCAAUGCAUCCCACCACAUGAUGAUGCCUGAAGAGCCUUGGUUUUUUG` -3

Form field: reported polymerase ribozyme fitness (log ratio) of `GACCAAUCUGCCCUCAGAGCUCGAGAACAUCUUCGGAUGCAGAGGAGGCAGGAUUCGGUGGCGCGAUAACGCCAACGUCCUCAACCUCCAAUGCAUCCCACCACAUGAUGAUGCCUGAAGAGCAUUGGUUUUUUG` -0.263

Form field: reported polymerase ribozyme fitness (log ratio) of `GACCAAUCUGCCCUCAGAGCUCGAGAACAUCUUCGGAUGCAGAGGAGGCAGGCUUCGGAGGCGCGAUAGUGCCAACGUCCUCAACCUCCAAUGCACCCCACCACAUGAUGAUGCCUGAAGAGCCUUGGUUUUUUG` -1.25

Form field: reported polymerase ribozyme fitness (log ratio) of `GACCAAUCUGGCCUCUGAGCUCGGGAACAUCUUCGGAUGCAGAGGACGCAGGCUUCGGUGGCGCGAUAGCGACAACGUCCUCAACCUCCAAUGCAUCCCACCACAUGAUGCUGCCUGAAGAGCCUUGGUUUUUUG` -7.64

Form field: reported polymerase ribozyme fitness (log ratio) of `GACCAAACUGCCCUCAGAGCUCGAGAUCAUCUUCGGAUGCAGAGGAGUCAGGCUUCGGUGGCGCGAUAGCGCCAACGUCCUCAACCCCCAAUGCAUCCCACCACAUGAUGAUGCCUGAAUAGCCUUGGUUUUUUG` -2.16
